Hi there, I'd appreciate the recorded protein stability index for every entry that follows.
B1: RHOBTB3 (parent)
chain: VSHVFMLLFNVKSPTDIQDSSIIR

variants of: B1; assay: protein stability index of a GFP-peptide fusion (GPS, HEK-293T) (PSI 1-6); higher = more stable; details: c terminus: a fixed tail appended;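 further: lentivirally expressed fusions sorted by FACS into six bins by GFP to DsRed ratio, PSI derived from sequencing read proportions per bin multiplied by bin number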
Numbers only.

Recorded protein stability index, per entry:
- construct.sequence: "VSHVFMLLFNRKSPTDIQDSSIIR [V11R]"
  measured.attribute: "protein stability index"
  endpoint.value: 3.03
- construct.sequence: "VSHVFMLLFNVKIPTDIQDSSIIR [S13I]"
  measured.attribute: "protein stability index"
  endpoint.value: 4.29
- construct.sequence: "VSHVFMLLFNCKSPTDIQDSSIIR [V11C]"
  measured.attribute: "protein stability index"
  endpoint.value: 3.03
- construct.sequence: "VSHVFMLLFNVISPTDIQDSSIIR [K12I]"
  measured.attribute: "protein stability index"
  endpoint.value: 3.28
- construct.sequence: "VSHVFMLLFNVKSPTDIQDSSIIN [R24N]"
  measured.attribute: "protein stability index"
  endpoint.value: 3.13

Kindly give each listed record's protein stability index.
1. VSHVFMLLFNVKSPTDWQDSSIIR [I17W]
2. VSHVFMLLFNVKSPTDIQDSSQIR [I22Q]

Out:
1. 3.63
2. 2.63

For each entry beneath this line, provide reported protein stability index.
1. VSHVFMLLFNVKSPCDIQDSSIIR [T15C]
2. VSHVFMLLFNVMSPTDIQDSSIIR [K12M]

Out:
1. 3.31
2. 3.63

For each of the variants below, state protein stability index.
1. VSHVFMLLFNVKSFTDIQDSSIIR [P14F]
2. VSHVFMLNFNVKSPTDIQDSSIIR [L8N]
3. VSHVFMLLFNVKSPTMIQDSSIIR [D16M]
4. VSHVFMLLFNVKSPTDIQDSCIIR [S21C]

Out:
[3.75, 2.46, 3.75, 3.76]
